These entries and their values trace back to PubChem BioAssay (NCI).

# method: NCI Yeast Anticancer Drug Screen. Data for the wt1 strain (AID 149)
# conditionLabel: S. cerevisiae wt1 strain (SPY 50644) growth inhibition; at 3.7 µM
Compounds without any hit were thinned out: in the full panel of roughly 79,000, 15% have a hit. Active and inactive are the calls of the source. No stated cut-off is given here; in the data, active means growth inhibition above about 70%; inactive means the rest.
Select the matching outcome among TRUE = active, FALSE = inactive

Solved cases (5 shown):
compound | group
CCC1(OC(=O)CN2CCN(CCO)CC2)C(=O)OCc2c1cc1n(c2=O)Cc2cc3ccccc3nc2-1 (stereo unspecified) | FALSE
O=C1OC(OC/C(Br)=C(\Br)COC2OC(=O)C(Cl)=C2Cl)C(Cl)=C1Cl (stereo unspecified) | FALSE
Cc1csc(=S)n1OC(=O)NC1CCCCC1 | TRUE
COc1cc(/C=C2\NC(=O)N(/C=C3\C(=O)Oc4ccccc4C3=O)C2=O)ccc1O | FALSE
CN(C)CCNC(=O)c1cccc2c1Oc1c(cccc1[N+](=O)[O-])O2 | FALSE

Now let's try a different one.
IN: Per the assay record, what outcome was assigned to CCc1c(Cl)c(C)cc(O)c1Cl ?
OUT: FALSE
